Reference source for all entries: patent US11034725B2

TARGET UNDER TEST: PCSK9Δhelix (Homo sapiens, UniProt Q8NBP7)
Construct: Human PCSK9 construct M1-Q692 with an engineered TEV site (residue deletion Y166, R167); made in house; host or cells: CHO
Sequence (Q8NBP7 with tags, fused parts or gaps limits assumed, one chain of several): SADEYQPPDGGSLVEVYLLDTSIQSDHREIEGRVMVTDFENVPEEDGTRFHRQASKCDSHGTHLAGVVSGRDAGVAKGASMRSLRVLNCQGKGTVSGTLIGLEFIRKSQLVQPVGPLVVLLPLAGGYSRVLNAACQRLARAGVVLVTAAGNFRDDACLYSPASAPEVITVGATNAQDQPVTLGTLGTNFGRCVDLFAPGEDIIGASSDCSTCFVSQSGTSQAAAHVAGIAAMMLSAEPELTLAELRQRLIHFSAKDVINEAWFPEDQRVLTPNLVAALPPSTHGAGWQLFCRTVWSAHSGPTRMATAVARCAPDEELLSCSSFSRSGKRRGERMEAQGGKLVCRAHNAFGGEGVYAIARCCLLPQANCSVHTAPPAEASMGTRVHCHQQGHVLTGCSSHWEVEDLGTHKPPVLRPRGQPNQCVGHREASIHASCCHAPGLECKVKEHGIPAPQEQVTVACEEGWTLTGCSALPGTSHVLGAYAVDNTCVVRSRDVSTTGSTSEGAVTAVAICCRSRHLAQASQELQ
EXPERIMENT NOTES: PCSK9Δhelix/Ab20 TR-FRET binding assay
CONDITION SUMMARY: TR-FRET, Example 7; read-out: PCSK9Δhelix/Ab20 IC50
ASSAY ENDPOINT: IC50 (µM)

Ac-DLMPWNLARIGLLR-NH2 [Compound 60]; 19.2
Ac-DLMPWNLVRIGLAR-NH2 [Compound 55]; 9.7
Ac-DLMPWNLVRIGLL-NH2 [Compound 46]; 14
Ac-TVFTSWEEYLDWVGSGDLMPWNLVRIGLLR-NH2 [Compound 20]; 0.001
Ac-DLMAWNLVRIGLLR-NH2 [Compound 42]; 28.5
Ac-DLMPWNLVRIGLLA-NH2 [Compound 54]; 15.4
Ac-TVFTSWEEYLDWVGSGKLWNL-NH2 [Compound 6]; 10
Ac-DAMPWNLVRIGLLR-NH2 [Compound 44]; 6.9
Ac-TVFTSWEEYLDWVGGSGKLWNLGRV-NH2 [Compound 8]; 0.049
Ac-WNLVRIGLLR-NH2 [Compound 53]; 33.1
Ac-TVFTSWEEYLDWVGSGKLWNLGRV-NH2 [Compound 1]; 0.021
Ac-ALMPWNLVRIGLLR-NH2 [Compound 45]; 2.02
Ac-LMPWNLVRIGLLR-NH2 [Compound 50]; 2.66
Ac-TVFTSWEEYLDWVGSGKLWN-NH2 [Compound 7]; 18.6
Ac-TVFTSWEEYLDWVGSGKLWNLG-NH2 [Compound 5]; 11.1
Ac-TVFTSWEEYLDWVGSGKLWNLGR-NH2 [Compound 4]; 1.52
Ac-TVFTSWEEYLDWVGSGGKLWNLGRV-NH2 [Compound 9]; 0.065
Ac-DLMPWNLVRIGLLR-NH2 [Compound 35]; 4.8

----------
TARGET UNDER TEST: FXIa (Homo sapiens)
Construct: purchased Haematologic Technologies
Sequence (P03951 19-387 partner limits assumed): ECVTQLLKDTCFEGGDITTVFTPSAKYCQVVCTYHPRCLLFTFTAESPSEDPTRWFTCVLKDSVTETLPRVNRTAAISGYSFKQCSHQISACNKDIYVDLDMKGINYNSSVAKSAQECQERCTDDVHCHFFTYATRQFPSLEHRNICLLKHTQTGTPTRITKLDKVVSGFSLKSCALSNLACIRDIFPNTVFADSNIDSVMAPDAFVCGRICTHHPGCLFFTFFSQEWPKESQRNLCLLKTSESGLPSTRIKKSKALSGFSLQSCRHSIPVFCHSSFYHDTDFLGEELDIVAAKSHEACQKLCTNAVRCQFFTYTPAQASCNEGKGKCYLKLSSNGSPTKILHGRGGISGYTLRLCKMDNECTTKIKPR
Sequence (P03951 388-625 limits assumed): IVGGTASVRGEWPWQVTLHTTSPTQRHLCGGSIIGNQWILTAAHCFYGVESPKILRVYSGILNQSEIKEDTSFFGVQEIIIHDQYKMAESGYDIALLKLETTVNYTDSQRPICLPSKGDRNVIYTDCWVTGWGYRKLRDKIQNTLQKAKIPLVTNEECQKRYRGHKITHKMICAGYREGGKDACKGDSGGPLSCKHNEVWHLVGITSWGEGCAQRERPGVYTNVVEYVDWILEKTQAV
EXPERIMENT NOTES: LC-MS determination of FXIa-mediated cleavage of groove-binding peptides
Assay type: in vitro ADME
CONDITION SUMMARY: isolated protease FXIa (50 nM) with K9-AAA, 6 h, with K9-AAA and 50 nM FXIa, read-out: peptide cleaved by FXIa
Peptide text beside a SMILES is read from it. * marks the point of attachment. Pentanoyl = CCCCC(=O)*
ASSAY ENDPOINT: metabolised at 6 h

CCCCC(=O)N[C@@H](Cc1c[nH]c2ccccc12)C(=O)N[C@@H](CC(N)=O)C(=O)N[C@@H](CC(C)C)C(=O)N[C@H](C(=O)N[C@@H](CCCNC(=N)N)C(=O)N[C@H](C(=O)NCC(=O)N[C@@H](CC(C)C)C(=O)N[C@H](C(=O)N[C@@H](CCCNC(=N)N)C(N)=O)[C@@H](C)O)[C@@H](C)CC)C(C)C [Compound 112] (Pentanoyl-WNLVRIGLTR-NH2); 76%

----------
compounds and their reported pIC50
TARGET UNDER TEST: PCSK9Δhelix (Homo sapiens, UniProt Q8NBP7)
Construct: Human PCSK9 construct M1-Q692 with an engineered TEV site (residue deletion Y166, R167); made in house; host or cells: CHO
EXPERIMENT NOTES: PCSK9Δhelix/Ab20 TR-FRET binding assay
CONDITION SUMMARY: TR-FRET; Table 8E, additional compounds; read-out: PCSK9Δhelix/Ab20 IC50
pIC50: −log10 of the molar value. Square brackets hold non-standard residues; d marks the D form. Peptide text beside a SMILES is read from it. * marks the point of attachment. Propanoyl(3-(3-pyridyl)) = O=C(CCc1cccnc1)*; hArg = N=C(N)NCCCC[C@H](N)C(=O)O; X30 = O=C(CCc1cccc(O)c1)*; Pentanoyl = CCCCC(=O)*
ASSAY ENDPOINT: pIC50

CCCCC(=O)N[C@@H](Cc1c[nH]c2ccccc12)C(=O)N[C@@H](CC(N)=O)C(=O)N[C@@H](CC(C)C)C(=O)N[C@H](C(=O)N[C@@H](CCCNC(=N)N)C(=O)N[C@H](C(=O)NCC(=O)N[C@@H](CC(C)C)C(=O)N[C@H](C(=O)N[C@@H](CCCNC(=N)N)C(=O)O)[C@@H](C)O)[C@@H](C)CC)C(C)C [Compound 176] (Pentanoyl-WNLVRIGLTR-OH); 4.74
CC[C@H](C)[C@H](NC(=O)[C@H](CCCNC(=N)N)NC(=O)[C@@H](NC(=O)[C@H](CC(C)C)NC(=O)[C@H](CC(N)=O)NC(=O)[C@H](Cc1c[nH]c2ccccc12)NC(=O)CCc1cccnc1)C(C)C)C(=O)NCC(=O)N[C@@H](CC(C)C)C(=O)N[C@H](C(=O)N[C@@H](CCCNC(=N)N)C(N)=O)[C@@H](C)O [Compound 173] ({Propanoyl(3-(3-pyridyl))}-WNLVRIGLTR-NH2); 5.01
CC[C@H](C)[C@H](NC(=O)[C@H](CCCCNC(=N)N)NC(=O)[C@@H](NC(=O)[C@H](CC(C)C)NC(=O)[C@H](CC(N)=O)NC(=O)[C@H](Cc1c[nH]c2ccccc12)NC(=O)CCc1cccc(O)c1)C(C)C)C(=O)NCC(=O)N[C@@H](CC(C)C)C(=O)N[C@@H](CC(C)C)C(=O)N[C@@H](CCCNC(=N)N)C(N)=O [Compound 217] (X30-WNLV[hArg]IGLLR-NH2); 6.41

----------
TARGET UNDER TEST: PCSK9 (Homo sapiens, UniProt Q8NBP7)
Sequence (Q8NBP7 153-692): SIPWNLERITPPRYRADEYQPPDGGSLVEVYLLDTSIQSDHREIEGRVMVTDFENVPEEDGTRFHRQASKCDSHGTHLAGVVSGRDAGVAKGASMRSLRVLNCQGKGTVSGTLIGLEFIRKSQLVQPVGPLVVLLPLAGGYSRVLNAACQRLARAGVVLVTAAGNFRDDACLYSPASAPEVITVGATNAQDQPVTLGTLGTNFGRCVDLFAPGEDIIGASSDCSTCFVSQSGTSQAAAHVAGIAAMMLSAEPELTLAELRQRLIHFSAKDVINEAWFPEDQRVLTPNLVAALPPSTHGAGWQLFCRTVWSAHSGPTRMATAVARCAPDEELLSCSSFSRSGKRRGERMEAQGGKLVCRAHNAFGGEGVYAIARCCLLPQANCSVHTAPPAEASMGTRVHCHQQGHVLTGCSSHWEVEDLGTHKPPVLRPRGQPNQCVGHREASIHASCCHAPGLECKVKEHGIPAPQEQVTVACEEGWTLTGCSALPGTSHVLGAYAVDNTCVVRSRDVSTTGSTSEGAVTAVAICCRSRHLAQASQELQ
Sequence (Q8NBP7 31-152 partner limits assumed): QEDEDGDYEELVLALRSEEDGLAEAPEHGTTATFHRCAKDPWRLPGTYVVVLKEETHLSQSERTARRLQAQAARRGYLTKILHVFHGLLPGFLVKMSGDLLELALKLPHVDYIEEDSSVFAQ
EXPERIMENT NOTES: PCSK9/EGF(A) TR-FRET binding assay
CONDITION SUMMARY: TR-FRET; Table 8E, additional compounds; read-out: PCSK9/EGF(A) IC50
pIC50: −log10 of the molar value. Square brackets hold non-standard residues; d marks the D form. Peptide text beside a SMILES is read from it. * marks the point of attachment. Propanoyl(3-indol-3-yl) = O=C(CCc1c[nH]c2ccccc12)*; Propanoyl(3-(4-MeO-Ph)) = COc1ccc(CCC(=O)*)cc1; X1 = O=C([C@H]1CC[C@@H](c2ccccc2)CC1)*; hArg = N=C(N)NCCCC[C@H](N)C(=O)O; X39 = O=C(C1CCC(c2ccccc2)CC1)*; X42 = O=C(c1ccc2cc[nH]c2c1)*; X18 = COc1ccc(OCCC(=O)*)cc1; X33 = CN1CCN(CCC(=O)*)CC1; Pentanoyl = CCCCC(=O)*
Quick rule: pIC50 of at least 5 means 1, below that means 0.

CC[C@H](C)[C@H](NC(=O)[C@H](CCCCNC(=N)N)NC(=O)[C@@H](NC(=O)[C@H](CC(C)C)NC(=O)[C@H](CC(N)=O)NC(=O)[C@H](Cc1c[nH]c2ccccc12)NC(=O)[C@H]1CC[C@@H](c2ccccc2)CC1)C(C)C)C(=O)NCC(=O)N[C@@H](CC(C)C)C(=O)N[C@@H](CC(C)C)C(=O)N[C@@H](CCCNC(=N)N)C(N)=O [Compound 208] (X1-WNLV[hArg]IGLLR-NH2); 1
CC[C@H](C)[C@H](NC(=O)[C@H](CCCCNC(=N)N)NC(=O)[C@@H](NC(=O)[C@H](CC(C)C)NC(=O)[C@H](CC(N)=O)NC(=O)[C@H](Cc1c[nH]c2ccccc12)NC(=O)c1ccc2cc[nH]c2c1)C(C)C)C(=O)NCC(=O)N[C@@H](CC(C)C)C(=O)N[C@@H](CC(C)C)C(=O)N[C@@H](CCCNC(=N)N)C(N)=O [Compound 222] (X42-WNLV[hArg]IGLLR-NH2); 0
CC[C@H](C)[C@H](NC(=O)[C@H](CCCCNC(=N)N)NC(=O)[C@@H](NC(=O)[C@H](CC(C)C)NC(=O)[C@H](CC(N)=O)NC(=O)[C@H](Cc1c[nH]c2ccccc12)NC(=O)CCOc1ccc(OC)cc1)C(C)C)C(=O)NCC(=O)N[C@@H](CC(C)C)C(=O)N[C@@H](CC(C)C)C(=O)N[C@@H](CCCNC(=N)N)C(N)=O [Compound 203] (X18-WNLV[hArg]IGLLR-NH2); 0
CCCCC(=O)N[C@@H](Cc1c[nH]c2ccccc12)C(=O)N[C@@H](CC(N)=O)C(=O)N[C@@H](CC(C)C)C(=O)N[C@H](C(=O)N[C@@H](CCCNC(=N)N)C(=O)N[C@H](C(=O)NCC(=O)N[C@@H](CC(C)C)C(=O)N[C@@H](CO)C(=O)N[C@@H](CCCNC(=N)N)C(N)=O)[C@@H](C)CC)C(C)C [Compound 181] (Pentanoyl-WNLVRIGLSR-NH2); 0
CC[C@H](C)[C@H](NC(=O)[C@H](CCCCNC(=N)N)NC(=O)[C@@H](NC(=O)[C@H](CC(C)C)NC(=O)[C@H](CC(N)=O)NC(=O)[C@H](Cc1c[nH]c2ccccc12)NC(=O)CNC(=O)[C@@H]1CCCN1C(=O)[C@H](Cc1ccc(O)cc1)NC(=O)[C@H](CO)NC(=O)[C@H](CCC(=O)O)NC(C)=O)C(C)C)C(=O)NCC(=O)N[C@@H](CC(C)C)C(=O)N[C@@H](CC(C)C)C(=O)N[C@@H](CCCNC(=N)N)C(N)=O [Compound 231] (Ac-ESYPGWNLV[hArg]IGLLR-NH2); 1
CC[C@H](C)[C@H](NC(=O)[C@H](CCCCNC(=N)N)NC(=O)[C@@H](NC(=O)[C@H](CC(C)C)NC(=O)[C@H](CC(N)=O)NC(=O)[C@H](Cc1c[nH]c2ccccc12)NC(=O)CCc1c[nH]c2ccccc12)C(C)C)C(=O)NCC(=O)N[C@@H](CC(C)C)C(=O)N[C@@H](CC(C)C)C(=O)N[C@@H](CCCNC(=N)N)C(N)=O [Compound 201] ({Propanoyl(3-indol-3-yl)}-WNLV[hArg]IGLLR-NH2); 1
CCCCC(=O)N[C@@H](Cc1c[nH]c2ccccc12)C(=O)N[C@@H](CC(N)=O)C(=O)N[C@@H](CC(C)C)C(=O)N[C@H](C(=O)N[C@@H](CCCNC(=N)N)C(=O)N[C@H](C(=O)NCC(=O)N[C@@H](CC(C)C)C(=O)N[C@@H](CC(=O)O)C(=O)N[C@@H](CCCNC(=N)N)C(N)=O)[C@@H](C)CC)C(C)C [Compound 178] (Pentanoyl-WNLVRIGLDR-NH2); 0
CC[C@H](C)[C@H](NC(=O)[C@H](CCCCNC(=N)N)NC(=O)[C@@H](NC(=O)[C@H](CC(C)C)NC(=O)[C@H](CC(N)=O)NC(=O)[C@H](Cc1c[nH]c2ccccc12)NC(=O)CCc1ccc(OC)cc1)C(C)C)C(=O)NCC(=O)N[C@@H](CC(C)C)C(=O)N[C@@H](CC(C)C)C(=O)N[C@@H](CCCNC(=N)N)C(N)=O [Compound 197] ({Propanoyl(3-(4-MeO-Ph))}-WNLV[hArg]IGLLR-NH2); 1
CC[C@H](C)[C@H](NC(=O)[C@H](CCCCNC(=N)N)NC(=O)[C@@H](NC(=O)[C@H](CC(C)C)NC(=O)[C@H](CC(N)=O)NC(=O)[C@H](Cc1c[nH]c2ccccc12)NC(=O)[C@@H](N)Cc1ccc(O)cc1)C(C)C)C(=O)NCC(=O)N[C@@H](CC(C)C)C(=O)N[C@@H](CC(C)C)C(=O)N[C@@H](CCCNC(=N)N)C(N)=O [Compound 226] (H-YWNLV[hArg]IGLLR-NH2); 1
CC[C@H](C)[C@H](NC(=O)[C@H](CCCNC(=N)N)NC(=O)[C@@H](NC(=O)[C@H](CC(C)C)NC(=O)[C@H](CC(N)=O)NC(=O)[C@H](Cc1c[nH]c2ccccc12)NC(=O)CCN1CCN(C)CC1)C(C)C)C(=O)NCC(=O)N[C@@H](CC(C)C)C(=O)N[C@@H](CC(C)C)C(=O)N[C@@H](CCCNC(=N)N)C(N)=O [Compound 140] (X33-WNLVRIGLLR-NH2); 0
CC[C@H](C)[C@H](NC(=O)[C@H](CCCNC(=N)N)NC(=O)[C@@H](NC(=O)[C@H](CC(C)C)NC(=O)[C@H](CC(N)=O)NC(=O)[C@H](Cc1c[nH]c2ccccc12)NC(=O)C1CCC(c2ccccc2)CC1)C(C)C)C(=O)NCC(=O)N[C@@H](CC(C)C)C(=O)N[C@@H](CC(C)C)C(=O)N[C@@H](CCCNC(=N)N)C(N)=O (stereo partly drawn) [Compound 147] (X39-WNLVRIGLLR-NH2); 1
